assay-target: UniProt:Q06418
Sequence (Q06418 whole entry): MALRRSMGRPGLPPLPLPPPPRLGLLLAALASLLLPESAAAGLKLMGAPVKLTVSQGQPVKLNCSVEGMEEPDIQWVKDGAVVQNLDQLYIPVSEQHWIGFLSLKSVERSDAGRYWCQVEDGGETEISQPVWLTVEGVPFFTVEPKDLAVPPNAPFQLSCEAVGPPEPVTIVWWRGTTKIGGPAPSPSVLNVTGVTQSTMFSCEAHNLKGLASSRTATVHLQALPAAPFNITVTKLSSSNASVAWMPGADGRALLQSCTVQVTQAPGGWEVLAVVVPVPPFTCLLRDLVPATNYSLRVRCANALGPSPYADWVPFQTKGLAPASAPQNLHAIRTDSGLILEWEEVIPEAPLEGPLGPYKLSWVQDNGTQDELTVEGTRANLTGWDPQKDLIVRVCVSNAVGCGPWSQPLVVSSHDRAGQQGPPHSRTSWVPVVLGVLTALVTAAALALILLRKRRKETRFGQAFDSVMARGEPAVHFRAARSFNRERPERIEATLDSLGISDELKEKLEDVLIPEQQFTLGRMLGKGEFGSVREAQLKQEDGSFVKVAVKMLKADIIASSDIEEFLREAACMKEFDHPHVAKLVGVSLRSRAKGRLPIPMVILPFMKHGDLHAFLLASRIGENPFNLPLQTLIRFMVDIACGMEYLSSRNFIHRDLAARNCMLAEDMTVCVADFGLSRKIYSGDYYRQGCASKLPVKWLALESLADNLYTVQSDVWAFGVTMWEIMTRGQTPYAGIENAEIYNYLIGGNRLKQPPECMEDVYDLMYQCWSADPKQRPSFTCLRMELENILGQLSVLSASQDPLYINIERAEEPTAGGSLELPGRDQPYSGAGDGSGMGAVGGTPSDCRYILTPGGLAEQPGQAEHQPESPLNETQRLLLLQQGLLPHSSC
experimental-readout: IC50 (nM)
One number for each entry, in nM.

Q: What IC50 value was documented for this compound, CC(C)C(=O)N1CCC(c2cc(-c3ccc(NC(=O)c4cn(C(C)C)c(=O)n(-c5ccccn5)c4=O)cc3)c3c(N)ncnn23)CC1 ?
Ans: 55
